- ASSAY PROCEDURE: Elimination rate constant in extracorporeal membrane oxygenation-treated human neonatal plasma treatment at 50 mg/kg BID by UPLC-MS/MS analysis
- Assay type: ADME, organism-based
- Set-up: dose 50 mg/kg
MEASUREMENT TYPE: k el (s⁻¹)
Give a bare numeral; the unit s⁻¹ is implied.

Just so you know, measured k el for CO/N=C(\C(=O)N[C@@H]1C(=O)N2C(C(=O)O)=C(COC(C)=O)CS[C@H]12)c1csc(N)n1 came out at 5.47e-05

----------
- ASSAY PROCEDURE: Volume of distribution in extracorporeal membrane oxygenation-treated human neonatal plasma at 25 mg/kg SID by UPLC-MS/MS analysis
- Assay type: ADME, organism-based
- Design: dose 25 mg/kg
MEASUREMENT TYPE: Vd (L/kg)
Answer format: numeric, L/kg implied, no suffix.

Data point: CC1(C)S[C@@H]2[C@H](NC(=O)[C@H](N)c3ccc(O)cc3)C(=O)N2[C@H]1C(=O)O ; Vd = 0.713

Values from ChEMBL document CHEMBL1629576
